tested on: MS2 coat protein; test: apparent KD of MS2 coat protein, switch ON state; designed switch direction (-1 OFF switch, 1 ON switch): -1; higher = weaker reporter binding; conditions: FMN input: 0 or 200 uM; Eterna round: R93 (includes R88 designs)
Recorded measurements of apparent KD of MS2 coat protein, one per entry
Could you give me the number in nM? Just the number is fine.

Record excerpt, results attached:
INSERT INTO assay_data (input_sequence, measurement_label, unit_info, readout_value) VALUES
  ('AAAAAACAUGAGGAUCACCCAUGUGAGGAUAUGAAAAUACUAAGACAACUGUAAUCAAUCAGAAGGCACAACAA [JR_Exc--1_Sub1208]', 'apparent KD of MS2 coat protein', 'nM', 18.8),
  ('CUCAAGUGAGGAUAUAAAAGAAAAGAAGAGAAAGAAAAGAAUUAGAAGGCACAUGAGGAUCACCCAUGUAAGAA [EteRNA is fun!]', 'apparent KD of MS2 coat protein', 'nM', 39.4),
  ('AAUAAGUGAGGAUAUACUAAAGAAAUGAAAAGGGAUAAAGAACAUGAGGAUCACCCAUGUAGAAGGCACAAUAA [''Aper-''Anat]', 'apparent KD of MS2 coat protein', 'nM', 31.9);

Incoming: Can you look up the measured apparent KD of MS2 coat protein of AGCUAGUCAGGAUAUGCGAAUAUGUCAAAAGACGUGAAGGGACAUGAGGAUCACCCAUGUAGAAGGGACUAGCA [Diamond 3] for me?
Outgoing: 32.4

Incoming: Find the recorded apparent KD of MS2 coat protein belonging to CCCAUGUCAGGAUAUCAGUAGUAAAAAAAAAAAAUUACUACUGAGAAGGGACAUGAGGAUCACCCAUGUCCCUU [EX4 314: Super Stable 14] and report it.
Outgoing: 16.9

Incoming: Entry under review: AAAAAGGCAGGAUAUGCAUACACACAAAAAAAAAAACUGGGACAUGAGGAUCACCCAUGUAGAAGGGCCAAAAA [Dora Explored 8 - Jieux - Exclusion 2] . Reported apparent KD of MS2 coat protein?
Outgoing: 151

====

system: K4 kissing-loop RNA reporter; test: apparent KD of K4 kissing-loop reporter; higher = weaker reporter binding; conditions: Eterna round: R107; input ligand: arginine 13.2 mM;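 further: bound reporter read as fluorescence of individual clusters on recovered sequencing chips by microscopy, with normalized cluster intensities fitted with a binding model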
We use 200 nM as the dividing line for apparent KD of K4 kissing-loop reporter: on or above the line is condition met, below is condition not met.

INSERT INTO assay_data (input_sequence, measured_on, answer_label) VALUES
  ('GUGGCACGAAAGUGCCACGCAUCCUCUGGCUAGGAUAUCUGGAAACAGAGAAGGAGCUCAUGAGUGAUGUUCAUCUAGAGGAUGC', 'K4 kissing-loop RNA reporter', 'condition met'),
  ('UAAGAAUAAGAUGCAGUGAUGUUGCAUCUACGAGGACCGGUACGGCCGCCACUCGAGGUCCUCGAACUGCAUCAGAGGACAAUAA [(H,1)-(H,2)-(Trp1)-(Trp2)-(T)''-(H)''-(T)'''']', 'K4 kissing-loop RNA reporter', 'condition not met'),
  ('GACAACAGGGUGAGACUCACGGCGCCAGAAGGAGCGGUGAUUCCACCAGGUAGGUCGCUGGCCCAGUGAUGUUGGGCUUUGUGUC [Onoran]', 'K4 kissing-loop RNA reporter', 'condition not met');

Would you kindly look at the next entry?
Incoming: Identify whether the reported apparent KD of K4 kissing-loop reporter of the following sequence is 200 nM or greater: GUAUGUGGAAACACGUACUUAUAUCCUCGACAGGAUAUGCGGAAACGCAGAAGGGUCGCCAACGAGUUUAUCCAGUGAUGUUGGA [Ex FMN A 15]
Outgoing: condition met

====

// reported apparent KD of MS2 coat protein for each item listed
system: MS2 coat protein; assay: apparent KD of MS2 coat protein; designed switch direction (-1 OFF switch, 1 ON switch): -1; higher = weaker reporter binding; details: input ligand: none
Reply with just the number (in nM).

INSERT INTO assay_data (input_sequence, readout_value) VALUES
  ('AUUAUUUCAGGAUAUGCCUUCAAAGACAUGAGGAUCACCCAUGUUUUCAGUGGCAGGAUCGCAGAAGGGAGAUAUU [EX5 C.29] (Eterna round: R97, puzzle: Exclusion 5)', 14.4),
  ('AUAAUGUCAGGAUAUCAGUCGACUAGCCUCGGCUAGUCGACUGAGAAGGGACAUGAGGAUCACCCAUGUGUUUC [E4/14-A2] (Eterna round: R97, puzzle: Exclusion 4)', 569),
  ('UUUUUAUAUGAAGGAUAUACUUAACAUGAGGAUCACCCAUGUGGUGUUGUGAGUGAGUGAGUUUAGUAGAAGGUCAAUGAUUUC [JMF''s solution 64] (Eterna round: R96, puzzle: Exclusion NG 2)', 439),
  ('CAGGACAGAGGAUAUACAUAGAUACAGAUUCAUGUAGAACUACAUGAGGAUCACCCAUGUAGAAGGCUGUCCUG [Fiskers Ex 2 - 3] (Eterna round: R96, puzzle: Exclusion 2)', 33.5),
  ('CGGUGUAACGUAGGAUAUCAACGCAACUGACGAUGAGAAGGACGACAUGAGGAUCACCCAUGUGAUUUCUCAAUAUUAUACAUC [Prohibition 86 - Jieux - Exclusion NG 1] (Eterna round: R96, puzzle: Exclusion NG 1)', 63.4);

Incoming: I'd like to know its apparent KD of MS2 coat protein. The sequence in question is AUAAAGCAAGCAUGAUCCCACAUGAGGAUCACCCAUGUGUUCGUCUUAUAGGCUGCUGAGGCUUUUGCCUCGGUGGC [LRO Sensor-off var1-06 loose mod of D91 from Mat747] (Eterna round: R97, puzzle: Sensor, turn-off variant 1)
Outgoing: 67.9

Incoming: I would be grateful if you could share the reported apparent KD of MS2 coat protein for CUCGUGCAGCAAAGCUGUACGAGUACAUGAGGAUCACCCAUGUAGGAUAUGGUACGCAAAGCGUGCUAGAAGGACGUGUGUAAG [Mat - Exclusion NG 3 - Mod of JL - D92] (Eterna round: R96, puzzle: Exclusion NG 3) .
Outgoing: 47.7

Incoming: Any idea what its apparent KD of MS2 coat protein is? The sequence is CAGCUGAAAGUGAGGAUAUCUAGAGCCUCGGCUCUAGAGAAGGCACAUGAGGAUCACCCAUGUGAUCACAGCUG [BmEx4/7-A2] (Eterna round: R97, puzzle: Brourd's mod of Exclusion 4)
Outgoing: 307

Incoming: State the recorded apparent KD of MS2 coat protein for this entry: UAUUAGCAAGUAAGAUCCCACAUGAGGAUCACCCAUGUGCUCGUCUUAUAAGGUACUGUGACGAAAGUCACGGUACC [Sensor 3, v1 - 88] (Eterna round: R96, puzzle: Sensor v3, turn-off variant 1)
Outgoing: 18.1

====

tested on: MS2 coat protein; assay: apparent KD of MS2 coat protein; designed switch direction (-1 OFF switch, 1 ON switch): -1; higher = weaker reporter binding; conditions: input ligand: FMN 200 uM
measurement.label: apparent KD of MS2 coat protein

Incoming: apparent KD of MS2 coat protein for AAGACACAUGAGGAUCACCCAUGUGAGGAUAUUCGAUGCUGAGCGUAAGCUUAGUAUCGGAGAAGGCACAAAGG [Salishxclusion 7 - Jieux - Exclusion 1] (Eterna round: R97, puzzle: Exclusion 1) ?
Outgoing: 119 nM

Incoming: What does the record list as apparent KD of MS2 coat protein for UGCGUGUGAGGAUAUGCGCGUGGCGAUCUUAAGUUACGCAAGCAGAAGGCACAUGAGGAUCACCCAUGUGGCCA [Eternabot (L1) Solution 20] (Eterna round: R97, puzzle: Exclusion 4) ?
Outgoing: 98.5 nM

Incoming: State the recorded apparent KD of MS2 coat protein for this entry: GGGUGCAAGCUAAGAUCCUACAUGAGGAUCACCCAUGUGGUCCGGUGACGUGAGUCACCGGACUUAGCUCGUCUUGU [salish99_S_TOV1_R5_004] (Eterna round: R97, puzzle: Sensor, turn-off variant 1)
Outgoing: 91.2 nM

Incoming: Bench note: what apparent KD of MS2 coat protein did CGAACUGUCUAGGAUAUACUCCCAUGCAGUUGAGUAGAAGGAGACACAUGAGGAUCACCCAUGUGACCCGAAGU [EX6 C.12] (Eterna round: R97, puzzle: Exclusion 6) show?
Outgoing: 25.3 nM

Incoming: What does the record list as apparent KD of MS2 coat protein for GAUUAACAUGAGGAUCACCCAUGUGAGGAUAUACGAGAAUAGAUUUCGAUCAGAUAGAGUAGAAGGCACAGAUA [EX1 #1] (Eterna round: R97, puzzle: Exclusion 1) ?
Outgoing: 44.9 nM

Incoming: Any idea what its apparent KD of MS2 coat protein is? The sequence is CAUGAUUGGGAAGGAUAUUGACCUAGUUAGCGCCGAGAAGGUCCCUGUCACAUGAGGAUCACCCAUGUGAAUCUGGUGUUCGAG [Ex NG1 #94] (Eterna round: R96, puzzle: Exclusion NG 1)
Outgoing: 36.7 nM

Incoming: For CCUAAACAUGAGGAUCACCCAUGUGAGGAUAUGCACACCACAACAUGCGGUUGAGGGUGCAGAAGGCAUAUGAG [Eternabot (L1) Solution 60] (Eterna round: R97, puzzle: Exclusion 1) , what is its reported apparent KD of MS2 coat protein?
Outgoing: 99.2 nM

Incoming: Would you kindly share the measured apparent KD of MS2 coat protein for GGGCCCGGAGGAUAUACAUGAGGAUCACCCAUGUAGGGCCCGGGUAUUCCCGGGUUUUGUAGAAGGCCGGGUUU [-33.8, -30.7 kcal, A 19%, 5a,5a] (Eterna round: R97, puzzle: Exclusion 3) ?
Outgoing: 25.1 nM

Incoming: Returns the measured apparent KD of MS2 coat protein for the input sequence. Input: CCCUCACAUGAGGAUCACCCAUGUCAGGAUAUCCAAGGCGAUCACCAAAAUAAAGCAAGGAGAAGGGACUUGGC [Enona] (Eterna round: R97, puzzle: Exclusion 1)
Outgoing: 71.5 nM

Incoming: Data request, read-out apparent KD of MS2 coat protein, for UUUUUAUAUGAAGGAUAUACUUAACAUGAGGAUCACCCAUGUGGUGUUGUGAGUGAGUGAGUUUAGUAGAAGGUCAGUUCUUUU [JMF's solution 79] (Eterna round: R96, puzzle: Exclusion NG 2)
Outgoing: 414 nM
